In this section we review reported yeast fitness values for a set of variants.
B1: tRNA (parent)
chain: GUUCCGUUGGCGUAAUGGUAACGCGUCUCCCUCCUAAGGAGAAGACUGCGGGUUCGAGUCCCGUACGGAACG

# Variants of: B1
# experimental_protocol: yeast fitness relative to wild type (ratio to wild type); higher = fitter; tRNA-Arg(CCU), competitive growth, 37 C, YPD
Variants at the floor of the assay were thinned out.
Just the number.

Use these answered entries as a reference point.
1. U3C A20U A69C | 0.749
2. U8G C11U | 0.646
3. C33U G44C | 0.601
4. A40U A65G A70U | 0.591
5. A36C C66U | 0.575

What value of measured yeast fitness is listed for A15G C55A ?
0.727

Same question for C4U C5G U28C G67C please.
0.909

Same question for C11A C33A G68A please.
0.557

Same question for A15U G38C G39A A43C C60G please.
0.569

Same question for C4A G56C C60G C66U please.
0.568
